assay: In vitro human microsomal stability assay; assay type: in vitro ADME; details: human, microsomes, 0.5 h, 0.5 μM, pH 7.4
observationType: HUMAN MICROSOMAL STABILITY (% REMAINING AFTER 30 MINUTES) (%)
Give bare numbers, in %.

# annotated cases, reported HUMAN MICROSOMAL STABILITY (% REMAINING AFTER 30 MINUTES) shown
compound	unitName	valueObserved
OC(c1ccccn1)C1(c2cccc(C(F)(F)F)c2)CCCO1 (single isomer, unassigned) [Example 106]	%	3.9
Cc1cccnc1[C@@H](O)C1(c2ccc(Cl)c(Cl)c2)CCC1	%	1.5
CC1(O)CC(c2ccnc(C(F)(F)F)c2)(C(O)c2ccccn2)C1 (single isomer, unassigned)	%	73
COC1CC(c2ccc(Cl)c(Cl)c2)(C(O)c2ccccn2)C1 (centres unmarked)	%	42

Fill in: HUMAN MICROSOMAL STABILITY (% REMAINING AFTER 30 MINUTES) of OC(c1ccccn1)C1(c2ccc(Cl)c(Cl)c2)COC1 (centres unmarked) is ___
47

src = patent US8772499B2
